Tested on: α–SMA protein in rat lung myofibroblasts (RLMyoF)
Test: MS/MS α–SMA in primary myofibroblasts from fibrotic rat lungs
Assay type: cell-based, Wistar rat
Details: Rattus norvegicus; non–stimulated RLMyoF, 72 h compound, MS/MS normalized to tubulin
Would you kindly list pIC50 for each of these compounds?
Give bare numbers, as −log10 of the molar value.

- smiles_record: "Cc1cccc(-c2[nH]c(CNc3ccccc3F)nc2-c2ccc3ncnn3c2)n1"
  val: 7.17

Consider now this further compound.
Ask: Please report the recorded pIC50 for "CCCCC[C@H](O)/C=C/[C@H]1[C@H](O)CC(=O)[C@@H]1CCCCCCC(=O)O" .
Result: 5.07

---

Biological target: EP4 receptor (human PTGER4) (Homo sapiens)
Sequence (P35408 whole entry): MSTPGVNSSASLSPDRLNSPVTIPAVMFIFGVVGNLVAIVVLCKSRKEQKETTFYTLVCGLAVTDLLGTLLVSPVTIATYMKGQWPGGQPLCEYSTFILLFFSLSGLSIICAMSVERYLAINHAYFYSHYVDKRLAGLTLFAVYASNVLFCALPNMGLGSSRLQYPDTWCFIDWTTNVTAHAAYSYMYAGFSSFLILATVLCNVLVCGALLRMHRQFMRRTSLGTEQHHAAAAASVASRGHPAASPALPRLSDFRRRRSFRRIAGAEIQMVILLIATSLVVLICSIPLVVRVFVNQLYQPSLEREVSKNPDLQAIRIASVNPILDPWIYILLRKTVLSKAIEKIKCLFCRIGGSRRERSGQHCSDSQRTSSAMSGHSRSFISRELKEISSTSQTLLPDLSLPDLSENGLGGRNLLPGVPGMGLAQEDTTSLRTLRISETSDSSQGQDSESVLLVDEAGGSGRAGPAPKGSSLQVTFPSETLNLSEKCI
Assay: β–arrestin recruitment assay (PathHunter)
Conditions: HEK–293 PathHunter, 120 min
quantity_name: EC50 (nM)
Numbers only, in nM.

Ask: Please report the recorded EC50 for "CCCCC[C@H](O)/C=C/[C@H]1[C@H](O)CC(=O)[C@@H]1CCCCCCC(=O)O" .
Result: 9

---

System: COL1 protein in TGF–β1–induced NHLF myofibroblasts
Assay: MS/MS COL1, NHLF myofibroblast reversal assay
Format: cell-based, human
Conditions: Homo sapiens, Col1; reversal assay: 24 h 5 ng/ml TGF–β1, washed, 72 h compound; normalized to tubulin; read-out: MS / MS COL1 IC50
quantity_name: pIC50
One number for each entry, as −log10 of the molar value.

In the examples that follow, each entry is paired with its recorded pIC50.
- compound: "CCCCC[C@H](O)/C=C/[C@H]1[C@H](O)CC(=O)[C@@H]1CCCCCCC(=O)O [Alprostadil]"
  pIC50: 8.82
- compound: "CCCCC[C@H](O)/C=C/[C@H]1[C@H](O)CC(=O)[C@@H]1C/C=C\\CCCC(=O)O [PGE2, prostaglandin E2]"
  pIC50: 9.40
- compound: "O=C(CC1NCCCC1O)Cn1cnc2cc(Br)c(Cl)cc2c1=O (stereo not shown) [Halofuginone]"
  pIC50: 6.94
- compound: "COC(=O)c1ccc2c(c1)NC(=O)/C2=C(\\Nc1ccc(N(C)C(=O)CN2CCN(C)CC2)cc1)c1ccccc1 [Nintedanib]"
  pIC50: 6.20
- compound: "CC(C)(C)c1ccc(CN(Cc2cccc(OCC(=O)O)c2)S(=O)(=O)c2cccnc2)cc1 [Evatanepag]"
  pIC50: 7.62
- compound: "Cc1cccc(-c2[nH]c(CNc3ccccc3F)nc2-c2ccc3ncnn3c2)n1 [EW–7197]"
  pIC50: 7.09

Consider now this further compound.
Ask: Please report the recorded pIC50 for C[C@]12CC[C@H](O)C[C@H]1CC[C@@H]1[C@@H]2C[C@@H](O)[C@]2(C)[C@@H](C3=CC(=O)OC3)CC[C@]12O [Digoxigenin] .
Result: 7.27

---

Test system: normal human lung fibroblasts (NHLF)
Assay: Phenotypic high-content assay (HCA) of TGF–β1–induced fibroblast–to–myofibroblast differentiation
Assay type: cell-based
Details: 10 µM compound, 5 ng/ml TGF–β1, 48 h
Would you kindly list Effect HCA at 10 µM [% inhibition] for each of these molecules?
Give bare numbers, in % inhibition.

In the examples that follow, each entry is paired with its recorded Effect HCA at 10 µM [% inhibition].
- molecule: "Nc1ncn(C2OC(CO)C(O)C2O)c(=O)n1 (stereo not shown)"
  unit_spec: "% inhibition"
  Effect HCA at 10 µM [% inhibition]: 97
- molecule: "CC[C@@]1(O)C(=O)OCc2c1cc1n(c2=O)Cc2cc3ccccc3nc2-1 [Camptothecine (S+)]"
  unit_spec: "% inhibition"
  Effect HCA at 10 µM [% inhibition]: 105
- molecule: "Cl.Cl.Fc1ccc(C(OCCN2CCN(CCCc3ccccc3)CC2)c2ccc(F)cc2)cc1 [GBR 12909 dihydrochloride]"
  unit_spec: "% inhibition"
  Effect HCA at 10 µM [% inhibition]: 56

Consider now this further molecule.
Ask: Please report the recorded Effect HCA at 10 µM [% inhibition] for CCSc1ccc2c(c1)N(CCCN1CCN(C)CC1)c1ccccc1S2.O=C(O)CC(O)C(=O)O.O=C(O)CC(O)C(=O)O [Thiethylperazine dimalate] .
Result: 76

Values from paper PMC6261607
